Data provenance is patent US11566007B2.

assayed-target: K-Ras G13C (Homo sapiens (Human), UniProt P01116+P62937, G13C)
Sequence (P01116-2 other isoform, or with tags, fused parts or gaps G13C): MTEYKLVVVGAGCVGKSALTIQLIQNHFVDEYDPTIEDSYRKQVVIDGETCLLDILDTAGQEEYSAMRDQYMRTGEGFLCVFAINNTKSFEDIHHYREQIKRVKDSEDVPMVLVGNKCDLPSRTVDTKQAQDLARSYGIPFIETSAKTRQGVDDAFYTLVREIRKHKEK
Sequence (P62937 whole entry): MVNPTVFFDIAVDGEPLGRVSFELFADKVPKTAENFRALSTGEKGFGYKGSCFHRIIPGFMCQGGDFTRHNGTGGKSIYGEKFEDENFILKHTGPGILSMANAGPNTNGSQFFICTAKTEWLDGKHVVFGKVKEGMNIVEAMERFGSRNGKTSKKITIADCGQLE
method-summary: Ras-Raf (BRAF RBD) disruption / FRET / MOA assay, KRAS G13C
Type: biochemical
settings: KRAS G13C; Ras-Raf disruption/FRET/MOA assay; read-out: IC50* KRAS G13C FRET data
pIC50: −log10 of the molar value.
readout-name: pIC50

Some solved entries appear below for comparison.
query: Which pIC50 value belongs to CCn1c(-c2cccnc2COC)c2c3cc(ccc31)-c1cc(O)cc(c1)C[C@H](NC(=O)[C@H](C(C)C)N(C)C(=O)C1CN(C(=O)/C=C/CN(C)C)C1)C(=O)N1CCC[C@H](N1)C(=O)OCC(C)(C)C2 [Example A071] ?
result: 7.00 to 8.00

query: Quick one: pIC50 for C=CC(=O)N1CCC[C@]12CCN(C(=O)N(C)[C@H](C(=O)N[C@H]1Cc3nc(cs3)-c3ccc4c(c3)c(c(-c3cccnc3[C@H](C)OC)n4CC)CC(C)(C)COC(=O)[C@@H]3CCCN(N3)C1=O)C(C)C)C2 (atropisomer, axis not shown) [Example A548] ?
result: 5.00 to 6.00

query: Consider the compound C=CC(=O)N1CCN(C(=O)N(C)[C@H](C(=O)N[C@H]2Cc3nc(cs3)-c3ccc4c(c3)c(c(-c3cccnc3[C@H](C)OC)n4CC)CC(C)(C)COC(=O)[C@@H]3CCCN(N3)C2=O)C(C)C)[C@@H]2CC[C@@H]21 (atropisomer, axis not shown) [Example A718] and give its measured pIC50.
result: 7.00 to 8.00

Next:
query: Suppose we examine the compound C=CC(=O)N1CC[C@H](N(C)C(=O)N(C)[C@H](C(=O)N[C@H]2Cc3nc(cs3)-c3ccc4c(c3)c(c(-c3cccnc3[C@H](C)OC)n4CC)CC(C)(C)COC(=O)[C@@H]3CCCN(N3)C2=O)C(C)C)C1 (atropisomer, axis not shown) [Example A728] ; what pIC50 value has been reported?
result: 6.00 to 7.00

###

assayed-target: NRAS Q61R (Homo sapiens (Human), UniProt P01111+P62937, Q61R)
Sequence (P01111 whole entry Q61R): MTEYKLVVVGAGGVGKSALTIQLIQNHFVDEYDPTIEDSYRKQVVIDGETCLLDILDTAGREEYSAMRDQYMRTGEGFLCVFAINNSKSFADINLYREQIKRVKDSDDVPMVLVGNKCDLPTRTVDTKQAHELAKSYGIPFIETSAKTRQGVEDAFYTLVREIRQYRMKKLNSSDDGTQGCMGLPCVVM
Sequence (P62937 whole entry): as the sequence (P62937 whole entry) above
method-summary: Ras-Raf (BRAF RBD) disruption / FRET / MOA assay, NRAS Q61R
Assay type: biochemical
settings: NRAS Q61R; Ras-Raf disruption/FRET/MOA assay; read-out: IC50* NRAS Q61R FRET data
pIC50: −log10 of the molar value.
readout-name: pIC50

query: What measured pIC50 is associated with C=CC(=O)N1CC[C@]2(CCN2C(=O)N(C)[C@H](C(=O)N[C@H]2Cc3nc(cs3)-c3ccc4c(c3)c(c(-c3cccnc3[C@H](C)OC)n4CC)CC(C)(C)COC(=O)[C@@H]3CCCN(N3)C2=O)C(C)C)C1 (atropisomer, axis not shown) on NRAS Q61R (Homo sapiens (Human), UniProt P01111+P62937, Q61R)?
result: 6.00 to 7.00

Others:
query: Form: Entry = CCn1c(-c2cccnc2[C@H](C)OC)c2c3cc(ccc31)-c1csc(n1)C[C@H](NC(=O)[C@H](C(C)C)N(C)C(=O)N1CCC3(CC1)CN(C(=O)/C=C/CF)C3)C(=O)N1CCC[C@H](N1)C(=O)OCC(C)(C)C2 (atropisomer, axis not shown) | System = NRAS Q61R (Homo sapiens (Human), UniProt P01111+P62937, Q61R) | pIC50 = ____
result: 6.00 to 7.00

###

Listed next: entries and their corresponding pIC50.
assayed-target: KRAS G13D (Homo sapiens (Human), UniProt P01116+P62937, G13D)
Sequence (P01116-2 other isoform, or with tags, fused parts or gaps G13D): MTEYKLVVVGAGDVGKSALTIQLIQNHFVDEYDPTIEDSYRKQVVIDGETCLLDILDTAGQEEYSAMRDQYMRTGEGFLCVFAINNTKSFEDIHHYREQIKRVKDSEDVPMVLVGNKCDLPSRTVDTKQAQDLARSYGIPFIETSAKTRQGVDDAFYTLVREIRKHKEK
Sequence (P62937 whole entry): as the sequence (P62937 whole entry) above
method-summary: Ras-Raf (BRAF RBD) disruption / FRET / MOA assay, KRAS G13D
Type: biochemical
settings: read-out: IC50* KRAS G13D FRET data
Method: The purpose of this biochemical assay is to measure the ability of test compounds to facilitate ternary complex formation between a nucleotide-loaded Ras isoform and cyclophilin A; the resulting ternary complex disrupts binding to a BRAF^RBD construct, inhibiting Ras signaling through a RAF effector. Compound is present in plate wells as a 10-point 3-fold dilution series starting at a final concentration of 30 μM. […]
pIC50: −log10 of the molar value.

query: Endpoint output: pIC50 of CO[C@@H](C)c1ncccc1-c1c2c3cc(ccc3n1CC(F)(F)F)N1CCO[C@@H](C[C@H](NC(=O)[C@@H](COC3CN(C(=O)C#CC(C)(C)N(C)C)C3)C(C)C)C(=O)N3CCC[C@H](N3)C(=O)OCC(C)(C)C2)C1 (atropisomer, axis not shown) . Value?
result: < 5.00

***
query: Find the recorded pIC50 belonging to CCn1c(-c2cccnc2[C@H](C)OC)c2c3cc(ccc31)-c1csc(n1)C[C@H](NC(=O)[C@H](C)N(C)C(=O)[C@H]1CCN(C(=O)C#CC(C)(C)N3CCC3)C1)C(=O)N1CCC[C@H](N1)C(=O)OCC(C)(C)C2 (atropisomer, axis not shown) and report it.
result: 5.00 to 6.00

query: Reported pIC50, compound C=CC(=O)N1CC[C@H](C(=O)N(C)C(C(=O)N[C@H]2C[C@H]3CN(CCO3)c3ccc4c(c3)c(c(-c3cccnc3[C@H](C)OC)n4CC)CC(C)(C)COC(=O)[C@@H]3CCCN(N3)C2=O)C(C)C)C1 (mixture of isomers) : ____
result: < 5.00

query: Param item = CO[C@@H](C)c1ncccc1-c1c2c3cc(ccc3n1C)-c1cccc(c1)C[C@H](NC(=O)[C@H](C(C)C)N(C)C(=O)[C@H]1CCN(C(=O)C#CCN3CCOCC3)C1)C(=O)N1CCC[C@H](N1)C(=O)OCC(C)(C)C2 (atropisomer, axis not shown) ; retrieve measured pIC50.
result: < 5.00

###

The reader will find reported IC50 values listed item by item below.
assayed-target: KRAS WT (Homo sapiens (Human), UniProt P01116+P62937)
Sequence (P01116-2 other isoform, or with tags, fused parts or gaps): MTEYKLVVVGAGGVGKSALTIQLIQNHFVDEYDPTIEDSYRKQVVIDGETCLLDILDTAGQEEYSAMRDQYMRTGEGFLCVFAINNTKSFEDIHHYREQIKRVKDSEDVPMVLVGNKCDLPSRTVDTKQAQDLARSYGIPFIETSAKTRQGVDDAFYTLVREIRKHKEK
Sequence (P62937 whole entry): as the sequence (P62937 whole entry) above
method-summary: Ras-Raf (BRAF RBD) disruption / FRET / MOA assay, KRAS WT
Format: biochemical
settings: read-out: IC50* KRAS WT FRET data

query: If you can, please state the reported IC50 value of C=CC(=O)N1CC[C@H](C(=O)N(C)[C@H](C(=O)N[C@H]2Cc3cc(O)cc(c3)-c3ccc4c(c3)c(c(-c3cncc5c3[C@@H](OC)CC5)n4CC)CC(C)(C)COC(=O)[C@@H]3CCCN(N3)C2=O)C(C)C)C1 [Example A275] .
result: 100 to 1000 nM

Shift focus to the following entry.
query: Record request: IC50 value, item CCn1c(-c2cccnc2[C@H](C)OC)c2c3cc(ccc31)-c1cc(O)cc(c1)C[C@H](NC(=O)[C@H](C(C)C)N(C)C(=O)c1ccc(NC(=O)/C=C/CN(C)C)nc1)C(=O)N1CCC[C@H](N1)C(=O)OCC(C)(C)C2 (atropisomer, axis not shown) [Example A249]
result: 1000 to 10000 nM

###

Test system: NCI-H358 (K-Ras G12C)
method-summary: CellTiter-Glo cell viability assay, NCI-H358
Assay type: cell-based, human
settings: Homo sapiens, NCI-H358, 120 h, NCI-H358, 5-day treatment; class symbols; read-out: Additional H358 Cell Viability assay data (K-Ras G12C, IC50)
Description: Note—The following protocol describes a procedure for monitoring cell viability of K-Ras mutant cancer cell lines in response to a compound of the invention. Other RAS isoforms may be employed, though the number of cells to be seeded will vary based on cell line used. Test compounds (132.5 nL) were directly dispensed into the assay plates containing cells. […] Luminescence was measured using the PerkinElmer Enspire. […]
readout-name: IC50

Examples with answers:
query: Look at this molecule and give its reported IC50. C=CC(=O)C1CC[C@H](C(=O)N(C)[C@H](C(=O)N[C@H]2Cc3cc(O)cc(c3)-c3ccc4c(c3)c(c(-c3cnn(C)c3[C@H](C)OC)n4CC)CC(C)(C)COC(=O)[C@@H]3CCCN(N3)C2=O)C(C)C)C1 (stereo partly shown) [Example A166]
result: < 10 nM

query: Given C=CC(=O)N1CC[C@H](C(=O)N(C)[C@H](C(=O)N[C@H]2Cc3cc(O)cc(c3)-c3ccc4c(c3)c(c(-c3c(C)cccc3C)n4CC)CC(C)(C)COC(=O)[C@@H]3CCCN(N3)C2=O)C(C)C)C1 [Example A226] , state its recorded IC50.
result: 100 to 1000 nM

query: Data request, read-out IC50, for C=CC(=O)N(C)CCN1CCN(C(=O)N(C)[C@H](C(=O)N[C@H]2Cc3cccc(c3)-c3ccc4c(c3)c(c(-c3cccnc3[C@H](C)OC)n4CC)CC(C)(C)COC(=O)[C@@H]3CCCN(N3)C2=O)C(C)C)C[C@@H]1C (atropisomer, axis not shown) [Example A570]
result: 100 to 1000 nM

New cases:
query: Any idea what its IC50 is? The molecule is C=CC(=O)N1CC[C@H](C(=O)N(C)[C@H](C(=O)N[C@H]2Cc3cc(O)cc(c3)-c3ccc4c(c3)c(c(-c3ccncc3)n4C(C)(C)C#N)CC(C)(C)COC(=O)[C@@H]3CCCN(N3)C2=O)C(C)C)C1 [Example A86]
result: 10 to 100 nM
